- condition_context: 303.15 K; 101 kPa; Liquid
Examples of molecules with documented mass density follow.
Kindly answer with a numeric value in kg/m3, unit omitted.

**Q:** Query mass density for "CCOC(C)(C)C"
**A:** 729.647

**Q:** Give recorded mass density. "Cc1ccc(C)cc1"
**A:** 852.326

**Q:** Using the record for "Cc1ccccc1C" , state its measured mass density.
**A:** 870.759

**Q:** Assign mass density to the following record: "Cc1cccc(C)c1"
**A:** 855.593

**Q:** Look up and state reported mass density for "COC(C)(C)C"
**A:** 729.112

----------
- condition_context: 318.15 K; 101 kPa; Liquid
Numbers after ± are expanded uncertainties.
measurement_type: mass density
Kindly format the answer as number then unit.

Field: example entries. Status: answers known.
# smiles_str, measured
rows = [
    ("COC(C)(C)C", "712.897 ± 0.6 kg/m3"),
    ("CCOC(C)(C)C", "713.96 ± 0.6 kg/m3"),
    ("Cc1ccccc1C", "858.054 ± 0.38 kg/m3"),
    ("Cc1ccc(C)cc1", "839.22 ± 0.41 kg/m3"),
]

Attention now shifts to the item below.
**Q:** In one line, give reported mass density of the entry "Cc1cccc(C)c1" .
**A:** 842.622 ± 0.41 kg/m3

----------
Listed here are compounds together with their documented speed of sound.
- condition_context: 310.65 K; 101 kPa; Liquid; Sing-around technique in a fixed-path interferometer
Please reply with the bare figure in m/s and do not write the unit itself.

# smiles_str, u, speed of sound
records = [
    ("Cc1ccc(C)cc1", "m/s", 1256.4),
]

**Q:** Determine from records and report speed of sound for "CCOC(C)(C)C"
**A:** 975.42

**Q:** Read the entry "Cc1ccccc1C" and write its reported speed of sound.
**A:** 1290.6

**Q:** Answer with the recorded speed of sound for the compound listed here: "COC(C)(C)C"
**A:** 979.62

**Q:** Assign speed of sound to the following record: "Cc1cccc(C)c1"
**A:** 1269.6

----------
Listed here are molecules together with their documented mass density.
- condition_context: 295.65 K; 101 kPa; Liquid
± gives the expanded uncertainty stated by the source.
Please report the result as a number followed by the unit.

Sample answers from the record:
# molecule, measured
data = [
    ("Cc1ccc(C)cc1 [1,4-dimethylbenzene]", "858.846 ± 0.38 kg/m3"),
    ("CCOC(C)(C)C [2-ethoxy-2-methylpropane]", "737.374 ± 0.56 kg/m3"),
    ("COC(C)(C)C [2-methoxy-2-methylpropane]", "737.036 ± 0.56 kg/m3"),
]

**Q:** For the molecule Cc1ccccc1C [1,2-dimethylbenzene] , report mass density.
**A:** 877.069 ± 0.36 kg/m3

**Q:** Quick one: give measured mass density for Cc1cccc(C)c1 [1,3-dimethylbenzene]
**A:** 862.035 ± 0.38 kg/m3

----------
- condition_context: 320.65 K; 101 kPa; Liquid
measurement_type: mass density (kg/m3)
Write it as a number; the unit kg/m3 goes unstated.

Worked cases, mass density given:
# molecule, measurement_type, u, measured
measured = [
    ("Cc1ccccc1C [1,2-dimethylbenzene]", "mass density", "kg/m3", 855.927),
    ("CCOC(C)(C)C [2-ethoxy-2-methylpropane]", "mass density", "kg/m3", 711.25),
    ("COC(C)(C)C [2-methoxy-2-methylpropane]", "mass density", "kg/m3", 710.141),
    ("Cc1cccc(C)c1 [1,3-dimethylbenzene]", "mass density", "kg/m3", 840.452),
]

**Q:** Read off the recorded mass density for Cc1ccc(C)cc1 [1,4-dimethylbenzene]
**A:** 837.031

Values were extracted from the NIST ThermoML archive (doi:10.1016/j.fluid.2008.03.004).
